FYI, the data here is from patent US11753408B2.

test: PAMPA permeability; type: in vitro ADME
Quantity measured: PAMPA Permeability (×10⁻⁶ cm/s)

Compound	Unit abbrev	PAMPA Permeability
CN(C)Cc1ccc(-c2ccc3ncc4c(c3c2)n(-c2cccc(C#N)c2)c(=O)n4C)cc1 [Compound 436]	×10⁻⁶ cm/s	767

[a] Cc1cc(C(=O)NCCCN(CCO)CCO)ccc1-n1c(=O)ccc2cnc3ccc(-c4ccc(Cl)cc4)cc3c21 [Compound 281]
[b] CN(C)Cc1ccc(-c2ccc3ncc4ccc(=O)n(-c5ccc(C(=O)N6CCN(C)CC6)cc5)c4c3c2)cc1 [Compound 164]
Q: Which of the two items, a and b , has the greater recorded PAMPA Permeability? // return label of chosen record
Result: b

----------
assay: Microsomal stability (rat); assay type: in vitro ADME; settings: rat microsomes
Quantity measured: Microsomal Stability (rat) T1/2 (min)

[P] CN(C)Cc1cc(-n2c(=O)ccc3cnc4ccc(-c5ccc(Cl)cc5)cc4c32)ccc1S(C)(=O)=O
[Q] N#Cc1cc(-c2ccc3ncc4ccc(=O)n(-c5ccc(C(=O)N6CCOCC6)cc5)c4c3c2)ccc1Cl
[R] CNC(=O)c1ccc(-n2c(=O)ccc3cnc4ccc(-c5ccc(Cl)cc5)cc4c32)c(C)c1
Q: Sort entries by Microsomal Stability (rat) T1/2 from minimum to maximum value. Please reply with the labels ordered as requested. Many thanks.
Result: P, R, Q

----------
assay: Microsomal stability (rat); assay type: in vitro ADME; conditions: rat microsomes
Quantity measured: Microsomal Stability (rat) T1/2 (min)

Cc1cccc(-c2ccc3ncc4ccc(=O)n(-c5ccc(C(=O)N6CCOCC6)cc5)c4c3c2)c1 5.4

[A] COc1cc(C(=O)N2CCOCC2)ccc1-n1c(=O)ccc2cnc3ccc(-c4ccc(Cl)cc4)cc3c21
[B] O=C1NCCc2cc(-n3c(=O)ccc4cnc5ccc(-c6ccc(Cl)cc6)cc5c43)ccc21
Q: Which of the two items, A and B , has the greater recorded Microsomal Stability (rat) T1/2? // return label of chosen record
Result: B
(B: 12.8 min, A: 5.6 min)

----------
Catalogue of molecules with associated Sol @ pH 7.4
experiment: Solubility at pH 7.4; type: physicochemical

Examples with their reported Sol @ pH 7.4 follow.
CC(C)NC(=O)c1ccc(-n2c(=O)ccc3cnc4ccc(-c5ccc(Cl)cc5)cc4c32)cc1 <1 ug/mL
O=C(NC1CC1)c1ccc(-n2c(=O)ccc3cnc4ccc(-c5ccc(Cl)c(O)c5)cc4c32)cc1 <1 ug/mL
COc1cc(C(=O)NC2CC2)ccc1-n1c(=O)ccc2cnc3ccc(-c4ccc(Cl)c(O)c4)cc3c21 <1 ug/mL
CN(C)CCc1ccc(-c2ccc3ncc4ccc(=O)n(-c5ccc(C(=O)NC6CC6)cc5)c4c3c2)cc1 >74 ug/mL
CC(C)(N)c1ccc(-c2ccc3ncc4ccc(=O)n(-c5ccc(C(=O)N6CCOCC6)cc5)c4c3c2)cc1 0 ug/mL
Cc1cc(C(=O)NC2CCN(CCN(C)C)CC2)ccc1-n1c(=O)ccc2cnc3ccc(-c4ccc(Cl)cc4)cc3c21 73.6 ug/mL

Q: Name the reported Sol @ pH 7.4 value associated with the molecule O=C(c1ccc(-n2c(=O)ccc3cnc4ccc(-c5ccc(Cl)c(C(=O)N6CCOCC6)c5)cc4c32)cc1)N1CCOCC1
Result: >90.0 ug/mL

----------
assay: Solubility at pH 7.4; format: physicochemical
Quantity measured: Sol @ pH 7.4 (ug/mL)

[1] O=C(NO)c1ccc(-n2c(=O)ccc3cnc4ccc(-c5ccc(Cl)cc5)cc4c32)cc1 [Compound 303]
[2] COc1cc(C(=O)NC2CCN(CCN(C)C)CC2)ccc1-n1c(=O)ccc2cnc3ccc(-c4ccc(Cl)cc4)cc3c21 [Compound 250]
Q: Which of the two items, 1 and 2 , has the greater recorded Sol @ pH 7.4? // return label of chosen record
Result: 2
